Taken from the supplement of paper PMC10127200.

# Test system: 786-O
# measurementProtocol: Euclidean distance of Cell Painting phenotypic profile (signed KS, 77 features) to DMSO centroid (dimensionless distance); 5 or 10 uM (library dependent); higher = stronger phenotypic change vs DMSO (phenoactivity)
# appliedConditions: 48 h
Counter-ions that a name gives are not always drawn.
measuredAttribute: Euclidean distance
// no unit, no text: just the number

Below are worked cases with known answers.
compound	Euclidean distance
O=c1c(O)c(-c2ccc(O)cc2O)oc2cc(O)cc(O)c12 [Morin Hydrate]	0.826
O=C(COc1ccc(C(=O)c2ccccc2)cc1)NC1CCN(Cc2ccccc2)CC1 [AdipoRon]	0.958
COc1ccc(OC)c(C(O)CNC(=O)CN)c1 (stereo not drawn) [Midodrine]	0.905
FC(F)(F)c1ccc(/C=C/c2nc(COc3ccc(CCCCn4ccnn4)cc3)co2)cc1 [Mubritinib (TAK 165)]	0.614
Cc1cc(NS(=O)(=O)c2ccc(N)cc2)no1 [Sulfamethoxazole sodium]	1.09
CCCCCCCCN=c1ccn(CCCCCCCCCCn2ccc(=NCCCCCCCC)cc2)cc1 [Octenidine Dihydrochloride]	6.46
CCS(=O)(=O)N1CCN(c2ccc(Nc3ncc(C(N)=O)c(NC4CC4)n3)cc2)CC1	2.57

The record that follows has no Euclidean distance shown yet.
Prompt: Fill blank: measured Euclidean distance of the compound CN(CCN1CCC(OC(=O)Nc2ccccc2-c2ccccc2)CC1)C(=O)c1ccc(CN2CCC(C(N)=O)CC2)cc1 [Revefenacin] is ____.
Completion: 1.01

----------
# Tested on: 786-O
# measurementProtocol: Euclidean distance of Cell Painting phenotypic profile (signed KS, 77 features) to DMSO centroid (dimensionless distance); 5 or 10 uM (library dependent); higher = stronger phenotypic change vs DMSO (phenoactivity)
# appliedConditions: 48 h
Where a name gives a salt, the structure may show the parent alone.
Classification field: 1 = Euclidean distance at or over 3; -1 = Euclidean distance under 3.

Solved entries:
compound	cat
CCCC(CCC)C(=O)O [Valproic acid sodium salt (Sodium valproate)]	-1
CCS(=O)(=O)c1cccc(-c2cc(C(=O)NC3CCN(C)CC3)c(C)c3[nH]c4ncc(C)cc4c23)c1	1
NC1(c2ccc(-c3nc4ccn5c(=O)[nH]nc5c4cc3-c3ccccc3)cc2)CCC1	1
Cc1cc(C2CCCCC2)n(O)c(=O)c1 [Ciclopirox]	-1

Turning now to a further record.
Prompt: Evaluate O=C1CC2(CCCC2)CC(=O)N1CCCCN1CCN(c2ncccn2)CC1 [Buspirone HCl] : Euclidean distance at minimum 3?
Completion: -1

----------
# Test system: FB
# measurementProtocol: Euclidean distance of Cell Painting phenotypic profile (signed KS, 77 features) to DMSO centroid (dimensionless distance); 5 or 10 uM (library dependent); higher = stronger phenotypic change vs DMSO (phenoactivity)
# appliedConditions: 48 h
Listed below: Euclidean distance values for each entry.
// no unit, no text: just the number

Prompt: Fill blank: measured Euclidean distance of the compound `CCN1/C(=C/C(C)=O)Sc2ccc(OC)cc21` is ____.
Completion: 0.64

----------
# Test system: DU145
# measurementProtocol: Euclidean distance of Cell Painting phenotypic profile (signed KS, 77 features) to DMSO centroid (dimensionless distance); 5 or 10 uM (library dependent); higher = stronger phenotypic change vs DMSO (phenoactivity)
# appliedConditions: 48 h
Where a name gives a salt, the structure may show the parent alone.
Classification field: y = Euclidean distance at or over 1; n = Euclidean distance under 1.

compound	targetEntity	cat
O=c1c(O)c(-c2ccc(O)c(O)c2)oc2cc(O)ccc12 [Fisetin]	DU145	y
CCc1cc(C(N)=O)ccc1-n1nc(C(C)C)c2c(-n3cnc(-c4cnn(C)c4)c3)ccnc21	DU145	y
CN(C)CCOC(c1ccc(Cl)cc1)c1ccccn1 (stereo not drawn) [CarbinoxaMine Maleate]	DU145	y

Prompt: Evaluate CCc1cc(C(N)=S)ccn1 [Ethionamide] : Euclidean distance at minimum 1?
Completion: y

Prompt: Subsequent entry: `Cc1c(Cn2c(C)nc3c(C(=O)O)cc(N4CCOCC4)cc32)cccc1C(F)(F)F`
Completion: y

----------
Listed below: Euclidean distance values for each entry.
# Tested on: A549
# measurementProtocol: Euclidean distance of Cell Painting phenotypic profile (signed KS, 77 features) to DMSO centroid (dimensionless distance); 5 or 10 uM (library dependent); higher = stronger phenotypic change vs DMSO (phenoactivity)
# appliedConditions: 48 h
Counter-ions that a name gives are not always drawn.

compound	targetEntity	Euclidean distance
C[C@@H]1O[C@@H]1P(=O)(O)O [Fosfomycin Disodium]	A549	0.52
CC(=O)O[C@H]1C[C@@]2(C)[C@@H](C[C@@H](O)[C@H]3[C@@]4(C)CC[C@@H](O)[C@@H](C)[C@@H]4CC[C@@]32C)/C1=C(\CCC=C(C)C)C(=O)O [Fusidine]	A549	0.807
Cc1onc(-c2ccccc2Cl)c1C(=O)N[C@@H]1C(=O)N2[C@@H]1SC(C)(C)[C@@H]2C(=O)O [Cloxacillin Sodium]	A549	0.744
O=C(CCCN1CCN(c2ccccn2)CC1)c1ccc(F)cc1 [Azaperone]	A549	0.568
O=[N+]([O-])c1ccc(O)c2ncccc12 [Nitroxoline]	A549	2.74
Nc1nc(F)nc2c1ncn2[C@@H]1O[C@H](COP(=O)(O)O)[C@@H](O)[C@@H]1O [Fludarabine Phosphate]	A549	2.48
CCN(CC)CCOc1ccc2c(c1)C(=O)c1cc(OCCN(CC)CC)ccc1-2 [Tilorone dihydrochloride]	A549	3.87

The record that follows has no Euclidean distance shown yet.
Prompt: Fill blank: measured Euclidean distance of the compound CCOC(=O)[C@H](CCc1ccccc1)N[C@H]1CCc2ccccc2N(CC(=O)O)C1=O [Benazepril] is ____.
Completion: 0.486

----------
# Tested on: OVCAR4
# measurementProtocol: Euclidean distance of Cell Painting phenotypic profile (signed KS, 77 features) to DMSO centroid (dimensionless distance); 5 or 10 uM (library dependent); higher = stronger phenotypic change vs DMSO (phenoactivity)
# appliedConditions: 48 h
Structures can show the parent of a compound that is named as a salt.
Classification field: yes (1) = Euclidean distance at or over 1; no (0) = Euclidean distance under 1.

Solved entries:
molecule	cat
CN1C(=O)/C(=C2/C(=O)Nc3ccccc32)c2ccccc21	yes (1)
O=C1c2cccc3c2[C@H](CCC3)CN1[C@@H]1CN2CCC1CC2 [Palonosetron HCl]	yes (1)

Turning now to a further record.
Prompt: Evaluate `CC(C)COc1ccc(CNC(=O)N(Cc2ccc(F)cc2)C2CCN(C)CC2)cc1` : Euclidean distance at minimum 1?
Completion: yes (1)

----------
# System: FB
# measurementProtocol: Euclidean distance of Cell Painting phenotypic profile (signed KS, 77 features) to DMSO centroid (dimensionless distance); 5 or 10 uM (library dependent); higher = stronger phenotypic change vs DMSO (phenoactivity)
# appliedConditions: 48 h
Classification field: Satisfied = Euclidean distance at or over 1; Not satisfied = Euclidean distance under 1.

compound	cat
C=CC(=O)Nc1cc(Nc2nccc(-c3cn(C)c4ccccc34)n2)c(OC)cc1N(C)CCN(C)C	Satisfied
COc1cc(Nc2c(C#N)cnc3cc(OCCCN4CCN(C)CC4)c(OC)cc23)c(Cl)cc1Cl [Bosutinib (SKI-606)]	Satisfied
NCC(=O)Nc1ccc(-n2nc(C(F)(F)F)cc2-c2ccc3c(ccc4ccccc43)c2)cc1	Satisfied
NC1=N[C@@]2(c3cc(NC(=O)c4ccc(F)cn4)ccc3F)COC[C@H]2CS1	Satisfied
COc1cc(C(=O)NS(=O)(=O)c2ccccc2C)ccc1Cc1cn(C)c2ccc(NC(=O)OC3CCCC3)cc12	Satisfied

Prompt: Evaluate `C[C@]12CCC(=O)C=C1[C@@H]1C[C@@H]1[C@H]1[C@@H]3[C@@H]4C[C@@H]4[C@@]4(CCC(=O)O4)[C@@]3(C)CC[C@@H]12` : Euclidean distance at minimum 1?
Completion: Not satisfied

----------
Listed below: Euclidean distance values for each entry.
# Test system: 786-O
# measurementProtocol: Euclidean distance of Cell Painting phenotypic profile (signed KS, 77 features) to DMSO centroid (dimensionless distance); 5 or 10 uM (library dependent); higher = stronger phenotypic change vs DMSO (phenoactivity)
# appliedConditions: 48 h
Counter-ions that a name gives are not always drawn.
// no unit, no text: just the number

Prompt: Fill blank: measured Euclidean distance of the compound O=C(Nc1cccc2cccnc12)c1ccc(N2C(=O)[C@@H]3[C@H](C2=O)[C@@H]2C=C[C@H]3C2)cc1 [IWR-1-endo] is ____.
Completion: 1

Prompt: Subsequent entry: `Oc1cc(O)cc(/C=C/c2ccc(O)c(O)c2)c1`
Completion: 0.759

Prompt: Subsequent entry: C[C@H](O)[C@H](O)[C@H]1CNc2[nH]c(N)nc(=O)c2N1 [Sapropterin Dihydrochloride]
Completion: 0.821

Prompt: Subsequent entry: CCC(c1ccccc1)c1c(O)c2ccccc2oc1=O (centres undefined)
Completion: 0.851

----------
# Test system: OVCAR4
# measurementProtocol: Euclidean distance of Cell Painting phenotypic profile (signed KS, 77 features) to DMSO centroid (dimensionless distance); 5 or 10 uM (library dependent); higher = stronger phenotypic change vs DMSO (phenoactivity)
# appliedConditions: 48 h
Counter-ions that a name gives are not always drawn.
Classification field: Condition met = Euclidean distance at or over 1; Condition not met = Euclidean distance under 1.

Solved entries:
molecule	cat
CCOc1ccc2c(-c3cccc(F)c3)nn(CC(=O)N(C)c3ccc4nc(C)oc4c3)c(=O)c2c1	Condition not met
c1ccc(-c2[nH]ncc2-c2ccnc3ccccc23)nc1	Condition not met
CNC[C@H](O)c1cccc(O)c1 [Phenylephrine HCl]	Condition not met

Prompt: Evaluate `Cc1nn(-c2ccccc2)c(C)c1C=NN1CCN(Cc2ccccc2)CC1` : Euclidean distance at minimum 1?
Completion: Condition met

Prompt: Subsequent entry: CCOC(=O)[C@H](CCc1ccccc1)N[C@H]1CCc2ccccc2N(CC(=O)O)C1=O [Benazepril]
Completion: Condition met

Prompt: Subsequent entry: COc1ccc2[nH]c([S+]([O-])Cc3ncc(C)c(OC)c3C)nc2c1 (configuration not stated) [Omeprazole Sodium]
Completion: Condition met

Prompt: Subsequent entry: O=C(OCC(O)CO)c1ccccc1Nc1ccnc2cc(Cl)ccc12 (configuration not stated) [Glafenine HCl]
Completion: Condition met

Prompt: Subsequent entry: CO[C@H]1C[C@@H]2CC[C@@H](C)[C@@](O)(O2)C(=O)C(=O)N2CCCC[C@H]2C(=O)O[C@H]([C@H](C)C[C@@H]2CC[C@@H](OCCO)[C@H](OC)C2)CC(=O)[C@H](C)/C=C(\C)[C@@H](O)[C@@H](OC)C(=O)[C@H](C)C[C@H](C)/C=C/C=C/C=C/1C [Everolimus (RAD001)]
Completion: Condition met

Prompt: Subsequent entry: `Nc1ccc2ncnc(NCCc3ccc(Oc4ccccc4)cc3)c2c1`
Completion: Condition not met

Prompt: Subsequent entry: CC(C)(C)C(=O)Oc1ccc(S(=O)(=O)Nc2ccccc2C(=O)NCC(=O)O)cc1 [Sivelestat sodium tetrahydrate]
Completion: Condition met

Prompt: Subsequent entry: CC(/C=C1\SC(=S)N(CC(=O)O)C1=O)=C\c1ccccc1 [Epalrestat]
Completion: Condition not met

Prompt: Subsequent entry: CCCCc1nc(Cl)c(CO)n1Cc1ccc(-c2ccccc2-c2nnn[nH]2)cc1 [Losartan Potassium (DuP 753)]
Completion: Condition not met
